# experimentSummary: activity coefficient (dimensionless); of the first substance listed, at infinite dilution; xn = mol fraction of the nth substance listed
# assayContext: 343.15 K; 100 kPa; Liquid; Chromatography; x1 = 0
outcomeMeasure: activity coefficient

Solved cases (6 shown):
molecule="c1ccsc1 [thiophene] + CCCC[N+]1(C)CCCC1.N#CN=C=[N-]" quantitativeresult=0.929
molecule="Cc1cccc(C)c1 [1,3-dimethylbenzene] + CCCC[N+]1(C)CCCC1.N#CN=C=[N-]" quantitativeresult=3.58
molecule="CCC(=O)CC [pentan-3-one] + CCCC[N+]1(C)CCCC1.N#CN=C=[N-]" quantitativeresult=1.9
molecule="CC(C)OC(C)C [diisopropyl ether] + CCCC[N+]1(C)CCCC1.N#CN=C=[N-]" quantitativeresult=19.1
molecule="CCCC(=O)OC [methyl butanoate] + CCCC[N+]1(C)CCCC1.N#CN=C=[N-]" quantitativeresult=3.16
molecule="CCO [ethanol] + CCCC[N+]1(C)CCCC1.N#CN=C=[N-]" quantitativeresult=0.52

1 = C#CCCCCC [1-heptyne] + CCCC[N+]1(C)CCCC1.N#CN=C=[N-]
2 = C=CCCCCC [1-heptene] + CCCC[N+]1(C)CCCC1.N#CN=C=[N-]
3 = CC(C)CO [2-methyl-1-propanol] + CCCC[N+]1(C)CCCC1.N#CN=C=[N-]
4 = CCCC(C)=O [pentan-2-one] + CCCC[N+]1(C)CCCC1.N#CN=C=[N-]
Task: hey, can you rank those molecules up there by activity coefficient? biggest number first please Use the labels to give the requested order.
Result: 2, 1, 4, 3

1 = CCCO [propan-1-ol] + CCCC[N+]1(C)CCCC1.N#CN=C=[N-]
2 = CCC=O [propanal] + CCCC[N+]1(C)CCCC1.N#CN=C=[N-]
3 = CCCCCCCCC [nonane] + CCCC[N+]1(C)CCCC1.N#CN=C=[N-]
4 = CO [methanol] + CCCC[N+]1(C)CCCC1.N#CN=C=[N-]
5 = C=CCCCC [hex-1-ene] + CCCC[N+]1(C)CCCC1.N#CN=C=[N-]
Task: Task field, ranking: reported activity coefficient, descending order. Give me the labels in the order the question wants.
Result: 3, 5, 2, 1, 4

P = C1CCOC1 [tetrahydrofuran] + CCCC[N+]1(C)CCCC1.N#CN=C=[N-]
Q = CCC(C)(C)OC [2-methoxy-2-methylbutane] + CCCC[N+]1(C)CCCC1.N#CN=C=[N-]
Task: Quick one: lower activity coefficient, P or Q ? Kindly state the label of the option you pick.
Result: P

----------
# experimentSummary: activity coefficient (dimensionless); of the first substance listed, at infinite dilution; xn = mol fraction of the nth substance listed
# assayContext: 373.15 K; 100 kPa; Liquid; Chromatography; x1 = 0
outcomeMeasure: activity coefficient

The following molecules have reported results that may help.
molecule="CCOC(C)=O [ethyl acetate] + CCCC[N+]1(C)CCCC1.N#CN=C=[N-]" quantitativeresult=2.61
molecule="CC(C)=O [acetone] + CCCC[N+]1(C)CCCC1.N#CN=C=[N-]" quantitativeresult=1.06
molecule="C1CCOC1 [tetrahydrofuran] + CCCC[N+]1(C)CCCC1.N#CN=C=[N-]" quantitativeresult=1.6

1 = c1ccsc1 [thiophene] + CCCC[N+]1(C)CCCC1.N#CN=C=[N-]
2 = CCCCCCCCC [nonane] + CCCC[N+]1(C)CCCC1.N#CN=C=[N-]
Task: Which value of activity coefficient is numerically greater: that of 1 or that of 2 ? Respond using the label that marks the chosen record.
Result: 2
(2: 114, 1: 1.05)

a = CCCCO [butan-1-ol] + CCCC[N+]1(C)CCCC1.N#CN=C=[N-]
b = C#CCCCCCC [1-octyne] + CCCC[N+]1(C)CCCC1.N#CN=C=[N-]
c = CCO [ethanol] + CCCC[N+]1(C)CCCC1.N#CN=C=[N-]
Task: Please list these in order of increasing activity coefficient. Thank you! To answer, write out the labels according to the requested order.
Result: c, a, b
(c: 0.521, a: 0.814, b: 9.87)

A = COC(C)(C)C [2-methoxy-2-methylpropane] + CCCC[N+]1(C)CCCC1.N#CN=C=[N-]
B = CCC(=O)OC [methyl propanoate] + CCCC[N+]1(C)CCCC1.N#CN=C=[N-]
C = CCc1ccccc1 [ethylbenzene] + CCCC[N+]1(C)CCCC1.N#CN=C=[N-]
Task: Let's sort these by activity coefficient, smallest first. Go ahead? Put the labels in the order asked and list them.
Result: B, C, A

a = CCC(C)(C)OC [2-methoxy-2-methylbutane] + CCCC[N+]1(C)CCCC1.N#CN=C=[N-]
b = CCCC(C)=O [pentan-2-one] + CCCC[N+]1(C)CCCC1.N#CN=C=[N-]
Task: Quick check, higher activity coefficient between a and b ? Provide the label of your selected option as the answer.
Result: a

I = c1ccccc1 [benzene] + CCCC[N+]1(C)CCCC1.N#CN=C=[N-]
II = C=C(C)c1ccccc1 [(1-methylethenyl)benzene] + CCCC[N+]1(C)CCCC1.N#CN=C=[N-]
Task: Sorting ascending by activity coefficient, which comes first: I or II ? Give the chosen item's label as your response.
Result: I
(I: 1.62, II: 3.02)

1 = C#CCCCCC [1-heptyne] + CCCC[N+]1(C)CCCC1.N#CN=C=[N-]
2 = CCCC(=O)OC [methyl butanoate] + CCCC[N+]1(C)CCCC1.N#CN=C=[N-]
3 = C=CCCCCC [1-heptene] + CCCC[N+]1(C)CCCC1.N#CN=C=[N-]
Task: Ascending by activity coefficient, please. Please list each label once, in the requested order.
Result: 2, 1, 3

Data provenance: the NIST ThermoML archive (doi:10.1016/j.fluid.2018.06.013)
